Assay system: SARS-CoV-2 receptor binding domain (RBD) (Severe acute respiratory syndrome …, UniProt P0DTC2)
Procedure summary: cell-based or functional assay
So basically: is IC50 of neutralisation of SARS-CoV-2 pseudovirus (293T_(ACE2) cells) under 200 ng/mL? Then Condition met. Not under? Then Condition not met.

[[record]]
binder = "C151 (antibody, V domains shown) VH: EVQLVESGGGLVKPGGSLRLSCAASGFTFSSYNMNWVRQAPGKGLEWVSCISSSSSYIYYADSVKGRFTISRDNAKNSLYLQMNSLRAEDTAVYYCARERGYDGGKTPPFLGGQGTLVTVSS VL: NFMLTQPHSVSESPGKTVTISCTGSSGSIASNYVQWYQQRPGSAPTTVIYEDNQRPSGVPDRFSGSIDSSSNSASLTISGLKTEDEADYYCQSYDSSNYWVFGGGTKLTVL"
cat = "Condition met"

[[record]]
binder = "C145 (antibody, V domains shown) VH: EVQLVESGGGLIQPGGSLRLSCAASGFSVSSNYMSWVRQAPGKGLEWVSVIYSGGSTYYADSVKGRFTISRDNSKNTLYLQMNSLRAEDTAVYYCAREGEVEGYYDFWSGYSRDRYYFDYWGQGTLVTVSS VL: QSALTQPASVSGSPGQSITISCTGTSSDVGGYNYVSWYQQHPGKAPKLMIYDVSNRPSGVSNRFSGSKSGNTASLTISGLQAEDEADYYCSSYTSSTTRVFGTGTRVTVL"
cat = "Condition met"

[[record]]
binder = "C120 (antibody, V domains shown) VH: EVQLVESGGGLIQPGGSLRLSCAASGFTVSSNYMTWVRQAPGKGLEWVSLIYPGGSTYYADSVKGRFTISRDNSKNTLYLQMNSLRAEDTAVYYCAREGMGMAAAGTWGQGTLVTVSS VL: AIRMTQSPSSLSASVGDTVTITCQASQDISKYLNWYQQKPGKAPKLLIYDASNLETGVPSRFSGSGSGTDFTFTISSLQPEDIATYYCQQYDNLPQTFGGGTKVEIK"
cat = "Condition met"

[[record]]
binder = "C155 (antibody, V domains shown) VH: EVQLVESGGGLIQPGGSLRLSCAASGFIVSSNYMSWVRQAPGKGLEWVSVIYSGGSTFYADSVKGRFTISRDNSKNTLYLQMNSLRAEDTAVYYCARDFGEFYFDYWGQGTLVTVSS VL: EIVMTQSPATLSVSPGERATLSCRASQSVSSNLAWYQQKPGQAPRLLIYGASTRATAIPARFSGSGSGTEFTLTISSLQSEDFAVYYCQQYNNWPRTFGQGTKVEIK"
cat = "Condition met"

[[record]]
binder = "C140 (antibody, V domains shown) VH: EVQLVESGGGLVQPGGSLRLSCAASGVTVSSNYMSWVRQAPGKGLEWVSLIYSGGSTFYADSVKGRFTISRDNSENTLYLQMNTLRAEDTAVYYCARDLYYYGMDVWGQGTTVTVSS VL: DIQLTQSPSFLSASVGDRVTITCRASQGISSYLAWYQQKPGKAPKLLIYAASTLQSGVPSRFSGSGSGTEFTLTISSLQPEDFATYYCQQLNSYSYTFGQGTKLEIK"
cat = "Condition met"

[[record]]
binder = "C132 (antibody, V domains shown) VH: QVQLQESGPGLVKPSGTLSLTCAVSGGSISSNNWWSCVRQPPGKGLEWIGEIYHSGSTNYNPSLKSRVTISVDKSKNQFSLKLSSVTAADTAVYYCARGGDTAMGPEYFDYWGQGTLVTVSS VL: QSALTQPASVSGSPGQSITISCTGTSSDVGGYNYVSWYQQHPGKAPKLMIYDVSNRPSGVSNRFSGSKSGNTASLTISGLQAEDEADYYCSSYTSSSTLLFGGGTKLTVL"
cat = "Condition not met"

[[record]]
binder = "C117 (antibody, V domains shown) VH: QVQLVESGGGVVQPGRSLRLSCAASGFTFSTYAMHWVRQAPGEGLEWVAVISYDGSNTYYADSVKGRFTISRDNSKNTLYLQMNSLRAEDTAVYYCARDPIWFGELLSPPFVHFDYWGQGTLVTVSS VL: QSVLTQPPSVSAAPGQKVTISCSGSSSNIGNNLVSWYQQLPGTAPKLLIYENNKRPSGIPDRFSGSKSGTSATLGITGLQTGDEADYYCGAWDSSLSAGGVYVFGTGTKVTVL"
cat = "Condition not met"

[[record]]
binder = "C138 (antibody, V domains shown) VH: EVQLVESGGGLVQPGGSLRLSCAASGFTFSTYWMSWVRQPPGKGLEWVANIKQDGSEKYYVDSVKGRFTISRDNAKNSLYLQMNSLRADDTAVYYCAGGTWLRSSFDYWGQGTLVTVSS VL: NFMLTQPHSVSESPGKTVTISCTGSSGSIASNYVQWYQQRPGSAPTTVIYEDNQRPSGVPDRFSGSIDSSSNSASLTISGLKTEDEADYYCQSYDSSNWVFGGGTKLTVL"
cat = "Condition not met"

[[record]]
binder = "C123 (antibody, V domains shown) VH: EVQLVESGGGLIQPGGSLRLSCAASGVTVSRNYMSWVRQAPGKGLEWVSVIYSGGSTYYADSVKGRFTISRDNSKNTLYLQMNSLRAEDTAVYYCARDLSAAFDIWGQGTMVTVSS VL: DIQLTQSPSFLSASVGDRVTITCRASQGISSYLAWYQQKPGKAPKLLIYAASTLQSGVPSRFSGSGSGTEFTLTISSLQPEDFATYYCQQLNSYPPAFGQGTRLEIK"
cat = "Condition met"

